target-or-test-system: T1, Recombinant His-tagged human CD36.ECD protein (Sino Biological) (human, UniProt P16671 30-439)
T1 construct: Bought protein; also called hCD36.ECD; hCD36; not shown: His tag
T1 sequence (P16671 30-439 limits assumed): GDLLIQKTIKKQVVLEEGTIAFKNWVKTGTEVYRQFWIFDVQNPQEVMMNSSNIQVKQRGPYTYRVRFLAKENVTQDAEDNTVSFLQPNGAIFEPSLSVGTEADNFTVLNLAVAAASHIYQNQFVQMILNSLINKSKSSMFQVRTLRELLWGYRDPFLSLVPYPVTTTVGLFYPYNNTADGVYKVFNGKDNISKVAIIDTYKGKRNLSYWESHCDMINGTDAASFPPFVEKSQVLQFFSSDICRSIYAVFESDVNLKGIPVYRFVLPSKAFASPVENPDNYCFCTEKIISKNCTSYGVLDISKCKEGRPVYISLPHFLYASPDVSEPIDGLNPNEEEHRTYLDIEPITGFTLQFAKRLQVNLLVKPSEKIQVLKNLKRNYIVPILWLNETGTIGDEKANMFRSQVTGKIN
procedure-details: ELISA, coated human CD36.ECD (FIG. 2F)
experimental-endpoint: pEC50
Please treat pEC50 as minus the base-10 logarithm of the molar concentration.

The binder identified as 117_DA57E (antibody, V domains shown, full-length IgG, human kappa) VH: EVQLVESGGGLVQPGGSLRLSCAASGFTIDAFGIHWVRQAPGKGLEWVAWIAPYGGETYYADSVKGRFTISADTSKNTAYLQMNSLRAEDTAVYYCARSFFGYFDYWGQGTLVTVSS VL: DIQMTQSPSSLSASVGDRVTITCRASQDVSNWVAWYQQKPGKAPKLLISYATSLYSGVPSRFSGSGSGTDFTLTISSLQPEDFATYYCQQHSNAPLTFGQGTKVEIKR registered its pEC50 at 9.72
